# target_under_test: T1, anti-IBP4 antibody clone variant 5B3.G9
# T1 construct: Mouse monoclonal; variant form expressed in CHO cells; also called IBP4 (5B3.G9) V1; IBP4-5B3.G9
# assay_details: ECLIA, peptide competes with IBP4 for the antibody

{"columns": ["binder", "binding result"],
 "data": [
  ["CHPALDGQRGKCWCV [G8]", "binds"],
  ["PALDGQRGKCWCVDR [G9]", "binds"],
  ["LDGQRGKCWCVDRKT [G10]", "binds"]
]}
